Catalogue of Kd readings, one per entry.
target desc: T1, recombinant human Tau monomer, 2N4R isoform (amino acids 2-441) (human, UniProt P10636-8 2-441)
T1 construct: range 2-441; N-terminal His-tag removed with TEV protease; also called monomeric Tau
T1 sequence (P10636 other isoform, or with tags, fused parts or gaps limits assumed): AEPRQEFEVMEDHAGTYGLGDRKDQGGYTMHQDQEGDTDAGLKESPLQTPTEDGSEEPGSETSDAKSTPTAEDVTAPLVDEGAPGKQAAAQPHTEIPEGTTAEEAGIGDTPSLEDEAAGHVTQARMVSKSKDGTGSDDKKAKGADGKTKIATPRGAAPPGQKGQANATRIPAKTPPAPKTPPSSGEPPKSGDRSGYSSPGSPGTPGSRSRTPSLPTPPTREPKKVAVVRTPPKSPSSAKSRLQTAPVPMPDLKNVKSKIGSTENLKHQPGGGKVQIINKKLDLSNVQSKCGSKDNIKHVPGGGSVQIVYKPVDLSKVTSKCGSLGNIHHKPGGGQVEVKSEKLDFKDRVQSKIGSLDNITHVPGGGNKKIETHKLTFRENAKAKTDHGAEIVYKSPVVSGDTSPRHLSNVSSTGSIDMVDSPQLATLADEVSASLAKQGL
protocol notes: SPR screen, hIgG captured, Tau monomer analyte
The reply should contain only the number, in nM.

Consider the reported Kd for these binders:
{"columns": ["binder", "units label", "Kd"],
 "data": [
  ["hu125B11 HC2 + hu113F5-F7 LC3 (antibody, V domains shown) VH: EVQLVESGGGLVQPGGSLRLSCAASRFIFSNYWMNWVRQAPGKGLEWVAQIRLKSDNYATHYAESVKGRFTISRDNSKNTVYLQMNSLRAEDTAVYYCTGGTTYWGQGTLVTVSS VL: DIQMTQSPSSLSASVGDRVTITCKASQNVGTAVAWYQQKPGKSPKLLIYSASRRFSGVPSRFSGSGSGTDFTLTISSLQPEDFATYYCQQFSTYPYTFGQGTKVEIK", "nM", 64],
  ["hu125B11 HC4 + 125B11 LC3 (antibody, V domains shown) VH: EVQLVESGGGLVQPGGSLRLSCAASRFIFSNYWMNWVRQAPGKGLEWVAQIRLKSDNYATHYAESVKGRFTISRDNSKNTLYLQMNSLRAEDTAVYYCTGGTTYWGQGTLVTVSS VL: DIQMTQSPSSLSASVGDRVTITCKASQNVGTAVAWYQQKPGKSPKLLIYSASIRYTGVPSRFSGSGSGTDFTLTISSLQPEDFATYYCQQFRTYPYTFGQGTKVEIK", "nM", 15],
  ["hu125B11 HC1 + hu113F5-F7 LC1 (antibody, V domains shown) VH: EVQLVESGGGLVQPGGSLRLSCAASRFIFSNYWMNWVRQAPGKGLEWVAQIRLKSDNYATHYAESVKGRFTISRDDSKNTVYLQMNSLRAEDTAVYYCTGGTTYWGQGTLVTVSS VL: DIQMTQSPSSLSASVGDRVTITCKASQNVGTAVAWYQQKPGKSPKLLIYSASRRFSGVPSRFSGSGSGTDFTLTISSLQPEDFATYFCQQFSTYPYTFGQGTKVEIK", "nM", 57],
  ["hu125B11 HC2 + hu113F5-F7 LC1 (antibody, V domains shown) VH: EVQLVESGGGLVQPGGSLRLSCAASRFIFSNYWMNWVRQAPGKGLEWVAQIRLKSDNYATHYAESVKGRFTISRDNSKNTVYLQMNSLRAEDTAVYYCTGGTTYWGQGTLVTVSS VL: DIQMTQSPSSLSASVGDRVTITCKASQNVGTAVAWYQQKPGKSPKLLIYSASRRFSGVPSRFSGSGSGTDFTLTISSLQPEDFATYFCQQFSTYPYTFGQGTKVEIK", "nM", 61]
]}

// moving on: another record for Kd
*Q* So what does the record say about Kd for hu125B11 HC1 + 125B11 LC3 (antibody, V domains shown) VH: EVQLVESGGGLVQPGGSLRLSCAASRFIFSNYWMNWVRQAPGKGLEWVAQIRLKSDNYATHYAESVKGRFTISRDDSKNTVYLQMNSLRAEDTAVYYCTGGTTYWGQGTLVTVSS VL: DIQMTQSPSSLSASVGDRVTITCKASQNVGTAVAWYQQKPGKSPKLLIYSASIRYTGVPSRFSGSGSGTDFTLTISSLQPEDFATYYCQQFRTYPYTFGQGTKVEIK ?
*A* 21
